meta.source: patent US10052320B2

biological target: Ba/F3-Flt3-transfected cells (Homo sapiens, UniProt P36888, cells depend on it, form not given); assay: Ba/F3-Flt3 (minus IL3) cellular proliferation assay, Alamar Blue; assay type: cell-based; conditions: minus IL3
MEASURED_METRIC: BAF3-FLT3 (MIN IL3) 384 well pIC50

[Q] Name the recorded BAF3-FLT3 (MIN IL3) 384 well pIC50 for COc1cc(OC)cc(N(CC2CC2)c2ccc3ncc(C(=O)N4CCC4)nc3c2)c1 .
[A] <5

[Q] For COc1cc(OC)cc(N(CC2CC2)c2ccc3ncc(-n4cnc(CO)c4)nc3c2)c1 , what is its reported BAF3-FLT3 (MIN IL3) 384 well pIC50?
[A] <5

[Q] Would you kindly share the measured BAF3-FLT3 (MIN IL3) 384 well pIC50 for COc1cc(OC)cc(N(CCN2CCNCC2)c2ccc3ncc(-c4ccc(N)nc4)nc3c2)c1 ?
[A] 5.28

[Q] Returns the measured BAF3-FLT3 (MIN IL3) 384 well pIC50 for the input molecule. Input: COc1cc(OC)cc(N(CC2CC2)c2ccc3ncc(-n4cncn4)nc3c2)c1
[A] <5

[Q] Reported BAF3-FLT3 (MIN IL3) 384 well pIC50, molecule COc1cc(OC)cc(N(CC2CC2)c2ccc3ncc(-c4nnn(C)n4)nc3c2)c1 : ____
[A] <5

[Q] What value of BAF3-FLT3 (MIN IL3) 384 well pIC50 has been recorded for this entry: COc1cc(OC)cc(N(CCO)c2ccc3ncc(-c4ccc(N)nc4)nc3c2)c1
[A] <5.025

[Q] Data request, read-out BAF3-FLT3 (MIN IL3) 384 well pIC50, for CNc1ccc(-c2cnc3ccc(N(CCCNCC(F)(F)F)c4cc(OC)cc(OC)c4)cc3n2)cn1
[A] <5

[Q] Param item = COCC(CN(c1cc(OC)cc(OC)c1)c1ccc2ncc(-c3cccnc3)nc2c1)OC(C)=O (single isomer, unassigned) [Compound 76] ; retrieve measured BAF3-FLT3 (MIN IL3) 384 well pIC50.
[A] <5

[Q] Given the entry COc1cc(OC)cc(N(CCNC(C)C)c2ccc3ncc(-c4ccc(N5CCOCC5)nc4)nc3c2)c1 , report its measured BAF3-FLT3 (MIN IL3) 384 well pIC50.
[A] 5.13

[Q] # get_value(readout='BAF3-FLT3 (MIN IL3) 384 well pIC50', item= COc1cc(OC)cc(N(CC2CC2)c2ccc3ncc(Nc4nncs4)nc3c2)c1 )
[A] <5

[Q] Bench note: what BAF3-FLT3 (MIN IL3) 384 well pIC50 did COc1cc(OC)cc(N(CCNC(C)C)c2ccc3ncc(NCC4CCNCC4)nc3c2)c1 show?
[A] <5

[Q] Recorded BAF3-FLT3 (MIN IL3) 384 well pIC50 of COc1cc(OC)cc(N(CCCNCC(F)(F)F)c2ccc3ncc(-c4ccnc(C(=O)NCCCN)c4)nc3c2)c1 , please.
[A] <5

[Q] Look at this molecule and give its reported BAF3-FLT3 (MIN IL3) 384 well pIC50. COc1cc(OC)cc(N(CCO)c2ccc3ncc(N4CCC(CN)CC4)nc3c2)c1
[A] <5

[Q] Using the record for COCCCN(c1cc(OC)cc(OC)c1)c1ccc2ncc(-c3ccn(C)c3)nc2c1 , report its BAF3-FLT3 (MIN IL3) 384 well pIC50.
[A] 5.07

[Q] GET /values?readout=BAF3-FLT3 (MIN IL3) 384 well pIC50&item= COc1cc(OC)cc(N(CCNC(C)C)c2ccc3ncc(C(=O)NCCCN4CCN(C)CC4)nc3c2)c1
[A] <5

[Q] Item COc1cc(OC)cc(N(CCNC(C)C)c2ccc3ncc(-c4ccc(N5CCN(C)CC5)nc4)nc3c2)c1 has what recorded BAF3-FLT3 (MIN IL3) 384 well pIC50?
[A] 5.47
